Data origin: PubChem BioAssay (NCATS)

protocolDetails: qHTS profiling of the MIPE4 collection as inhibitors of Plasmodium falciparum (DD2) proliferation (AID 743345)
conditionDetails: P. falciparum Dd2 in erythrocytes, SYBR Green DNA, 72 h; at 28.5 µM (top of the series) unless noted
Assignment: determine reported parasite growth remaining, % of DMSO control (lower = more inhibition) for the given compounds.
Give bare numbers, in %.

CN(C)CCN(C)CCc1ccc(Cl)c(Cl)c1    32
Cc1ccnc2c1NC(=O)c1cccnc1N2C1CC1    112
COc1ccc(C(CN(C)C)C2(O)CCCCC2)cc1 (stereo not given)    58.9
COc1cc2c(c(OC)c1OC)-c1ccc(OC)c(=O)cc1[C@@H](NC(C)=O)CC2    78.8
C=C(C)[C@H]1Cc2c(ccc3c2O[C@@H]2COc4cc(OC)c(OC)cc4[C@@H]2C3=O)O1    94.4
CC(C)CC(N(C)C)C1(c2ccc(Cl)cc2)CCC1 (stereo not given)    99.9

Kindly give each listed record's parasite growth remaining, % of DMSO control (lower = more inhibition).
1. CCCC(C)(COC(N)=O)COC(=O)NC(C)C (stereo not given)
2. CN1CCN(C(=O)O[C@H]2c3nccnc3C(=O)N2c2ccc(Cl)cn2)CC1
3. CCOC(=O)c1ncn2c1CN(C)C(=O)c1cc(F)ccc1-2

[91, 98.2, 84.4]
